Reported activity at 0.013 µM values for the following molecules.
SUBJECT OF TEST: B. taurus (heart) complex I (Bos taurus, UniProt P03887+P17694+P42026)
Sequence (P03887 whole entry): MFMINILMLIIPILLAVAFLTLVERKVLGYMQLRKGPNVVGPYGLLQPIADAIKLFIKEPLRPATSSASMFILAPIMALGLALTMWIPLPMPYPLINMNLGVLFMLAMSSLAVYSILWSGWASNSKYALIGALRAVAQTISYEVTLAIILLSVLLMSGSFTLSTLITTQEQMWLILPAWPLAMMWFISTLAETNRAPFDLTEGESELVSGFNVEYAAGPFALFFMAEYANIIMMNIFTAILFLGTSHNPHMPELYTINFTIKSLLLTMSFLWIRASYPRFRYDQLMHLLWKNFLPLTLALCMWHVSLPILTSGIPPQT
Sequence (P17694 34-463): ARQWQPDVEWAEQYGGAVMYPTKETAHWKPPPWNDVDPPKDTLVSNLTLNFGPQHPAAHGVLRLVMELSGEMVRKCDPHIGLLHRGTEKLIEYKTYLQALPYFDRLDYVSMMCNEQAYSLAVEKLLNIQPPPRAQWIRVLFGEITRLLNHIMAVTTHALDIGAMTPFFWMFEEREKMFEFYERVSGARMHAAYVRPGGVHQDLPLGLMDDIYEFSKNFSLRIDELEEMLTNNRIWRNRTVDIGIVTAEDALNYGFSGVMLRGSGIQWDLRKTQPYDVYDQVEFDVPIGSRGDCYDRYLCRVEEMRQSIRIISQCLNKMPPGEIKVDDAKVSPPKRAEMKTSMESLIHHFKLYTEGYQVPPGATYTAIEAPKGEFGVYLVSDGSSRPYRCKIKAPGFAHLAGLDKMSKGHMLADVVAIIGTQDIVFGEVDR
Sequence (P42026 38-216): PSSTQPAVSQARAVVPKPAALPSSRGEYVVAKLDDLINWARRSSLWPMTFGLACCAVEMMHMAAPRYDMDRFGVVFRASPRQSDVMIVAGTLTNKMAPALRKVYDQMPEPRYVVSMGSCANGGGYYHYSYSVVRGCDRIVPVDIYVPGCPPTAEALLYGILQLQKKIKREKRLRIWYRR
TEST: biochemical
Type: biochemical
RECORDED CONDITIONS: Dose 0.013 µM; read-out: B. taurus mitochondrial complex I activity
Your answer should be a plain number; it is taken to be in %.

[[record]]
record_smiles = "Nc1nc2ccccc2n1Cc1ccc(Cl)cc1"
unit_info = "%"
endpoint_result = 88.3

[[record]]
record_smiles = "CCCOc1ccc(Cn2cnc3ccccc32)cc1"
unit_info = "%"
endpoint_result = 104

[[record]]
record_smiles = "CCc1cc(OCCn2cnc3ccccc32)ccc1Cl"
unit_info = "%"
endpoint_result = 89.2


activity at 0.013 µM measured on "Clc1ccc(OCCn2cnc3ccccc32)c(Cl)c1" = 94.3

activity at 0.013 µM measured on "Clc1ccc(Cn2cnc3ccccc32)c(Cl)c1" = 94.7

----------
SUBJECT OF TEST: C. elegans (N2) complex I (NADH:ubiquinone oxidoreductase) (Caenorhabditis elegans, UniProt P24887+Q93873+Q94360)
Sequence (Q94360 17-199): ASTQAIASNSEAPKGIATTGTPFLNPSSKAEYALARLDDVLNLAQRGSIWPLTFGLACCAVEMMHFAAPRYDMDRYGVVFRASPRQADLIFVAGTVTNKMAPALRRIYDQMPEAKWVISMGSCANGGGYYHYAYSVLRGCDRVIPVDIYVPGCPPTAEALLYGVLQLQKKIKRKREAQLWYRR
Sequence (P24887 whole entry): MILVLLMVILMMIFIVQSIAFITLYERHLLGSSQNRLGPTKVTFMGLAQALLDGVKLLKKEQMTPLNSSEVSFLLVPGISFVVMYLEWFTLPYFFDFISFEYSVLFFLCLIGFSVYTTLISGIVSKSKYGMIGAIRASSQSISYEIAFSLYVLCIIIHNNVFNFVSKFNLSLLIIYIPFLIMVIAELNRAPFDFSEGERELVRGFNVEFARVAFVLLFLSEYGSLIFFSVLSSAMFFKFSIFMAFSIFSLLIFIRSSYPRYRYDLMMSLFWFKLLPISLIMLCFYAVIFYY
Sequence (Q93873 31-482): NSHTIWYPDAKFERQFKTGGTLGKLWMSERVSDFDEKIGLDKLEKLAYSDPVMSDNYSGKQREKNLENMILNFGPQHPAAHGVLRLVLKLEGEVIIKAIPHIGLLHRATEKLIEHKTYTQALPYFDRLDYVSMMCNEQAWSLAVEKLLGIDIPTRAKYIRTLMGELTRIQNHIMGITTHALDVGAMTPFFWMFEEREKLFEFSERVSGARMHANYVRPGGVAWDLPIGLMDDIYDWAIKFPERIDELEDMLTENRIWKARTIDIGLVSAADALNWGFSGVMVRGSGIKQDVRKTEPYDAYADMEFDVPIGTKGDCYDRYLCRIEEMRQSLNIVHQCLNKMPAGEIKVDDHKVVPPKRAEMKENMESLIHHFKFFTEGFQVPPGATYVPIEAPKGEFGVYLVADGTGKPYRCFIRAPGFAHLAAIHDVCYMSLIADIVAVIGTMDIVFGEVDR
TEST: biochemical
Format: biochemical
RECORDED CONDITIONS: wild-type (N2) mitochondria; read-out: C. elegans complex I IC50
ASSAY READOUT: pIC50
Entry type: numeric. Quantity: pIC50, the -log10 of concentration in molar units.

[[record]]
molecule = "Cc1nc2ccccc2n1Cc1ccc(Cl)cc1 [STK697993]"
assay_readout = "pIC50"
endpoint_result = 6.95


Let's switch to this molecule now.
pIC50 measured on Cc1ccccc1OCCCCn1cnc2ccccc21 [Compound 7732524] = 6.98

----------
Tested on: ben-1 mutant (ECA882) C. elegans
TEST: microbe, parasite or virus in culture
RECORDED CONDITIONS: Caenorhabditis elegans, read-out: C. elegans ben-1(e1880) development/viability
So basically, the class depends on measured viability at 500 µM, and the ranges are LOW: < 3%; MID: ≥ 3% and < 40%; HIGH: ≥ 40%

Consider the following illustrative entries.
[[record]]
compound = "Cc1nc2ccccc2n1CCOc1ccccc1"
category_label = "HIGH"

[[record]]
compound = "Cc1ccc(OCCn2cnc3ccccc32)c(C)c1"
category_label = "HIGH"

[[record]]
compound = "Cc1ccc(SCCCCn2cnc3ccccc32)cc1"
category_label = "MID"

[[record]]
compound = "Cc1ccc(C(C)C)c(OCC(O)Cn2cnc3ccccc32)c1 (stereo not drawn)"
category_label = "MID"

[[record]]
compound = "CCCn1c(COc2ccc(C)cc2)nc2ccccc21"
category_label = "HIGH"

[[record]]
compound = "Cc1ccccc1OCCCn1c(C)nc2ccccc21"
category_label = "LOW"

[[record]]
compound = "Cc1ccc(CSCc2nc3ccccc3[nH]2)cc1"
category_label = "HIGH"

[[record]]
compound = "CCc1cc(OCCn2cnc3ccccc32)ccc1Cl"
category_label = "LOW"


Prompt: Into which bin does this compound go? "CC(C)Oc1cccc(OCCn2cnc3ccccc32)c1"
Completion: MID

Prompt: Into which bin does this compound go? "Clc1ccccc1OCCCCn1cnc2ccccc21"
Completion: MID

----------
SUBJECT OF TEST: B. taurus (heart) complex I (Bos taurus, UniProt P03887+P17694+P42026)
TEST: biochemical
Assay type: biochemical
RECORDED CONDITIONS: Dose 0.625 µM; read-out: B. taurus mitochondrial complex I activity
Experimental: Six 8–10-week-old C57Bl/6 female mice (Charles River) were freshly dissected, and their livers and hearts collected into separate 1.5 mL microcentrifuge tubes. Organs were flash-frozen in liquid nitrogen and stored at −80 °C prior to use. […] The enzymatic activities of individual ETC complexes (I-IV) were assessed spectrophotometrically in isolated mitochondria using a Varioskan LUX Multimode plate reader (ThermoFisher Scientific). […]
ASSAY READOUT: activity at 0.625 µM (%)
Your answer should be a plain number; it is taken to be in %.

Sample answers from the record:
[[record]]
compound = "Cc1nc2ccccc2n1CCOc1ccccc1Cl [Compound 5561642]"
endpoint_result = 86.2

[[record]]
compound = "Nc1nc2ccccc2n1CCOc1ccc(Br)cc1 [Compound 5842535]"
endpoint_result = 84.7

[[record]]
compound = "Cc1ccc(SCCCCn2cnc3ccccc32)cc1 [Compound 7925333]"
endpoint_result = 90.8


The observed activity at 0.625 µM for CCc1cc(OCCn2cnc3ccccc32)ccc1Cl [Compound 7925288] when tested with B. taurus (heart) complex I (Bos taurus, UniProt P03887+P17694+P42026) stands at 84.6

The observed activity at 0.625 µM for Cc1ccc(C(C)C)c(OCC(O)Cn2cnc3ccccc32)c1 (centres unmarked) [Compound 6093301] when tested with B. taurus (heart) complex I (Bos taurus, UniProt P03887+P17694+P42026) stands at 75.8

The observed activity at 0.625 µM for Clc1ccccc1OCCCCn1cnc2ccccc21 [Compound 7925804] when tested with B. taurus (heart) complex I (Bos taurus, UniProt P03887+P17694+P42026) stands at 75.5

The observed activity at 0.625 µM for Clc1ccc(SCCCCn2cnc3ccccc32)cc1 [Compound 7925515] when tested with B. taurus (heart) complex I (Bos taurus, UniProt P03887+P17694+P42026) stands at 97.6

The observed activity at 0.625 µM for Nc1nc2ccccc2n1Cc1ccc(Cl)cc1 [Compound 5652765] when tested with B. taurus (heart) complex I (Bos taurus, UniProt P03887+P17694+P42026) stands at 72.5

The measured values listed here are drawn from paper PMC11079024.
